molecular target: T1, purified human/cynomolgus/dog/mouse/rat or minipig DLL3 antigen (ELISA coat) (human/cynomolgus/dog/mouse/rat or …); assay: ELISA, plate coated with purified DLL3 antigen, HRP secondary (FIG. 8)
T1 construct: May be the same protein as the his-tagged antigen used for BLI
T1 sequence (Q9NYJ7 whole entry): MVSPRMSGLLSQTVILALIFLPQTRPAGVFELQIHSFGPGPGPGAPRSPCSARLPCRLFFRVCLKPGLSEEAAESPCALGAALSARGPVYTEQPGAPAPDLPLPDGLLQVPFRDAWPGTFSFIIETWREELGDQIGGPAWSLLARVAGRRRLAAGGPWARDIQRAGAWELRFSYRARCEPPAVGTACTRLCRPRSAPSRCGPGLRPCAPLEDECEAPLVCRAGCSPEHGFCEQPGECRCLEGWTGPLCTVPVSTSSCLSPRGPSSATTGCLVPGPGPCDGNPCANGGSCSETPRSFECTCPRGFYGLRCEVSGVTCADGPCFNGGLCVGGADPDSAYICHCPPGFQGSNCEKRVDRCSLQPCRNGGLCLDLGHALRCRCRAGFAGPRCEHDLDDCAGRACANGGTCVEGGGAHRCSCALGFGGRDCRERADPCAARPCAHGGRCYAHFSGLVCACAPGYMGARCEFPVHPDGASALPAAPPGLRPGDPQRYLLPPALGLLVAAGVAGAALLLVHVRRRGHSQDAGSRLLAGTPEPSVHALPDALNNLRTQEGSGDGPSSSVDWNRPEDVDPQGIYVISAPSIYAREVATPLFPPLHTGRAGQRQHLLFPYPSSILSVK
readout_label: pEC50
// scale note: pEC50 = -log10(conc_M); give the bare number

binder: IAB57M1-3 (other, Signal peptide left out) EIVMTQSPATLSVSPGERATLSCKASQSVSNDVVWYQQKPGQAPRLLIYDASNRYTGIPARFSGSGSGTEFTLTISSLQSEDFAVYYCQQDYTSPWTFGQGTKLEIKGSTSGGGSGGGSGGGGSSQVQLVQSGAEVKKPGASVKVSCKASGYTFTNYGMNWVRQAPGQGLEWMGWINTYTGEPTYADDFKGRVTMTTDTSTSTAYMELRSLRSDDTAVYYCARIGDSSPSDYWGQGTLVTVSSEPKSSDKTHTCPPCPPCGGGSSGGGSGGQPREPQVYTLPPSREEMTKNQVSLTCLVKGFYPSDIAVEWESNGQPENNYKTTPPVLDSDGSFFLYSKLTVDKSRWQQGNVFSCSVMHEALHNHYTQKSLSLSPG
readout_label: pEC50
endpoint_result: 9.96
--
binder: IAB57M2-6 (other, Signal peptide left out) QVQLVQSGAEVKKPGASVKVSCKASGYTFTNYGMNWVRQAPGQGLEWMGWINTYTGEPTYADDFKGRVTMTTDTSTSTAYMELRSLRSDDTAVYYCARIGDSSPSDYWGQGTLVTVSSGSTSGGGSGGGSGGGGSSEIVMTQSPATLSVSPGERATLSCKASQSVSNDVVWYQQKPGQAPRLLIYYASNRNTGIPARFSGSGSGTEFTLTISSLQSEDFAVYYCQQDYTSPWTFGQGTKLEIKEPKSSDKTHTCPPCPPCGGGSSGGGSGGQPREPQVYTLPPSREEMTKNQVSLTCLVKGFYPSDIAVEWESNGQPENNYKTTPPVLDSDGSFFLYSKLTVDKSRWQQGNVFSCSVMHEALHNHYTQKSLSLSPG
readout_label: pEC50
endpoint_result: 9.79
--
binder: IAB57M2-2 (other, Parental minibody; Signal peptide left out; also called parental minibody IAB57M2-2) QVQLVQSGAEVKKPGASVKVSCKASGYTFTNYGMNWVRQAPGQGLEWMGWINTYTGEPTYADDFKGRVTMTTDTSTSTAYMELRSLRSDDTAVYYCARIGDSSPSDYWGQGTLVTVSSGSTSGGGSGGGSGGGGSSEIVMTQSPATLSVSPGERATLSCKASQSVSNDVVWYQQKPGQAPRLLIYYASNRYTGIPARFSGSGSGTEFTLTISSLQSEDFAVYYCQQDYTSPWTFGQGTKLEIKEPKSSDKTHTCPPCPPCGGGSSGGGSGGQPREPQVYTLPPSREEMTKNQVSLTCLVKGFYPSDIAVEWESNGQPENNYKTTPPVLDSDGSFFLYSKLTVDKSRWQQGNVFSCSVMHEALHNHYTQKSLSLSPG
readout_label: pEC50
endpoint_result: 9.92
--
binder: IAB57M1-7 (other, Signal peptide left out) EIVMTQSPATLSVSPGERATLSCKASQSVSNDVVWYQQKPGQAPRLLIYDASNRNTGIPARFSGSGSGTEFTLTISSLQSEDFAVYYCQQDYTSPWTFGQGTKLEIKGSTSGGGSGGGSGGGGSSQVQLVQSGAEVKKPGASVKVSCKASGYTFTNYGMNWVRQAPGQGLEWMGWINTYTGEPTYADDFKGRVTMTTDTSTSTAYMELRSLRSDDTAVYYCARIGDSSPSDYWGQGTLVTVSSEPKSSDKTHTCPPCPPCGGGSSGGGSGGQPREPQVYTLPPSREEMTKNQVSLTCLVKGFYPSDIAVEWESNGQPENNYKTTPPVLDSDGSFFLYSKLTVDKSRWQQGNVFSCSVMHEALHNHYTQKSLSLSPG
readout_label: pEC50
endpoint_result: 9.95
--
binder: IAB57M1-1 (other, Parental minibody; also called parental minibody IAB57M1-1) EIVMTQSPATLSVSPGERATLSCKASQSVSNDVVWYQQKPGQAPRLLIYYASNRYTGIPARFSGSGSGTEFTLTISSLQSEDFAVYYCQQDYTSPWTFGQGTKLEIKGSTSGGGSGGGSGGGGSSQVQLVQSGAEVKKPGASVKVSCKASGYTFTNYGMNWVRQAPGQGLEWMGWINTYTGEPTYADDFKGRVTMTTDTSTSTAYMELRSLRSDDTAVYYCARIGDSSPSDYWGQGTLVTVSSEPKSSDKTHTCPPCPPCGGGSSGGGSGGQPREPQVYTLPPSREEMTKNQVSLTCLVKGFYPSDIAVEWESNGQPENNYKTTPPVLDSDGSFFLYSKLTVDKSRWQQGNVFSCSVMHEALHNHYTQKSLSLSPG
readout_label: pEC50
endpoint_result: 10.02

In plain terms, IAB57M2-4 (other, Signal peptide left out) QVQLVQSGAEVKKPGASVKVSCKASGYTFTNYGMNWVRQAPGQGLEWMGWINTYTGEPTYADDFKGRVTMTTDTSTSTAYMELRSLRSDDTAVYYCARIGDSSPSDYWGQGTLVTVSSGSTSGGGSGGGSGGGGSSEIVMTQSPATLSVSPGERATLSCKASQSVSNDVVWYQQKPGQAPRLLIYDASNRYTGIPARFSGSGSGTEFTLTISSLQSEDFAVYYCQQDYTSPWTFGQGTKLEIKEPKSSDKTHTCPPCPPCGGGSSGGGSGGQPREPQVYTLPPSREEMTKNQVSLTCLVKGFYPSDIAVEWESNGQPENNYKTTPPVLDSDGSFFLYSKLTVDKSRWQQGNVFSCSVMHEALHNHYTQKSLSLSPG has a documented pEC50 of 9.93

In plain terms, IAB57M1-5 (other, Signal peptide left out) EIVMTQSPATLSVSPGERATLSCKASQSVSNDVVWYQQKPGQAPRLLIYYASNRNTGIPARFSGSGSGTEFTLTISSLQSEDFAVYYCQQDYTSPWTFGQGTKLEIKGSTSGGGSGGGSGGGGSSQVQLVQSGAEVKKPGASVKVSCKASGYTFTNYGMNWVRQAPGQGLEWMGWINTYTGEPTYADDFKGRVTMTTDTSTSTAYMELRSLRSDDTAVYYCARIGDSSPSDYWGQGTLVTVSSEPKSSDKTHTCPPCPPCGGGSSGGGSGGQPREPQVYTLPPSREEMTKNQVSLTCLVKGFYPSDIAVEWESNGQPENNYKTTPPVLDSDGSFFLYSKLTVDKSRWQQGNVFSCSVMHEALHNHYTQKSLSLSPG has a documented pEC50 of 9.90

In plain terms, IAB57M2-8 (other, Signal peptide left out) QVQLVQSGAEVKKPGASVKVSCKASGYTFTNYGMNWVRQAPGQGLEWMGWINTYTGEPTYADDFKGRVTMTTDTSTSTAYMELRSLRSDDTAVYYCARIGDSSPSDYWGQGTLVTVSSGSTSGGGSGGGSGGGGSSEIVMTQSPATLSVSPGERATLSCKASQSVSNDVVWYQQKPGQAPRLLIYDASNRNTGIPARFSGSGSGTEFTLTISSLQSEDFAVYYCQQDYTSPWTFGQGTKLEIKEPKSSDKTHTCPPCPPCGGGSSGGGSGGQPREPQVYTLPPSREEMTKNQVSLTCLVKGFYPSDIAVEWESNGQPENNYKTTPPVLDSDGSFFLYSKLTVDKSRWQQGNVFSCSVMHEALHNHYTQKSLSLSPG has a documented pEC50 of 9.91
